Collected TGI values appear next to each entry.
Tested on: HCT-15 colon
Assay: NCI tumour cell line growth inhibition, 48 h
Just the number please, in µM, no unit attached.

Example entries and their recorded answers appear below.
Molecule	Target Desc	Unit Abbrev	TGI
CC(=O)O[C@H]1C(=O)[C@@]2(C)[C@H]([C@H](OC(=O)C3CCCCC3)[C@]3(O)C[C@H](OC(=O)[C@H](O)[C@@H](NC(=O)C4CCCCC4)C4CCCCC4)C(C)=C1C3(C)C)[C@]1(OC(C)=O)CO[C@@H]1C[C@@H]2O	HCT-15 colon	µM	4.42
OCCCCC#Cc1ccccc1C#Cc1ccccc1C(F)(F)F	HCT-15 colon	µM	16
COc1cc2c(/C=C3/C(=O)Nc4ccccc43)c(Cl)n(Cc3ccccc3[N+](=O)[O-])c2cc1C	HCT-15 colon	µM	26.7
O=S1(=O)CCN(Cc2ccccc2)/C1=N\S(=O)(=O)c1ccc(Cl)cc1	HCT-15 colon	µM	37

// query Quickly give me recorded TGI for C=C1C(=O)OC2C1C(OC(=O)/C(C)=C/C)CC1(C)C(=O)CCC(=C)C21 (centres undefined)
// result 10.3
